assay: Solubility in PBS; format: physicochemical
// Solubility lookup, one value per entry
API: value field is a number in µM; no unit string.

compound	unit name	Solubility
CC(=O)N1CCC[C@]12CC=CCCCC1(CCCC=CCCCOC(=O)N3CC[C@@](C(=O)N[C@@H](Cc4ccccc4Cl)C(=O)N[C@@H](Cc4csc5ccccc45)C(=O)N[C@@H](CCC(N)=O)C(N)=O)(C3)NC(=O)[C@H](Cc3ccc(C(F)(F)F)cc3)NC(=O)[C@H](Cc3ccccc3)NC(=O)[C@H](C)NC(=O)[C@H](C)NC(=O)[C@H](CC(=O)O)NC(=O)[C@H](CC(=O)O)NC1=O)NC(=O)[C@H](CC(C)(C)C)NC(=O)[C@H](CC(=O)O)NC2=O (some centres unmarked) [I-1369]	µM	10

Next compound, Solubility to be filled in.
Which Solubility is reported for this compound? CCN(CC)C(=O)[C@H](CCC(N)=O)NC(=O)[C@H](Cc1csc2ccccc12)NC(=O)[C@H](Cc1ccsc1)NC(=O)[C@]12CCN(C1)C(=O)OCCCC=CCCCC1(CCCC=CC[C@]3(CCCN3C(C)=O)C(=O)N[C@@H](CC(=O)O)C(=O)N[C@@H](CC(C)(C)C)C(=O)N1)C(=O)N[C@@H](CC(=O)O)C(=O)N[C@@H](CC(=O)O)C(=O)N[C@@H](C)C(=O)N[C@@H](C)C(=O)N[C@@H](Cc1ccccc1)C(=O)N[C@@H](CC(N)=O)C(=O)N2 (some centres unmarked) [I-1373]
50
